Taken from PubChem BioAssay.

- experiment summary: RPMI8226 myeloma cell viability, profiling panel, resazurin fluorescence, basal, 24 h, PK04 Diversity Set (AID 1180);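 further: RPMI8826 multiple myeloma cell line at 5000 cells per well; test concentration not given here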
- recorded conditions: higher = more signal
# z-score binned as 1 = under -0.4, 2 = from -0.4 up to 0.7, 3 = 0.7 and over

O=C1O[C@@H](c2ccccc2)[C@@H](c2ccccc2)N2[C@@H](c3ccc(O)cc3)[C@]3(C(=O)Nc4ccccc43)[C@@H](C(=O)O)[C@H]12; 2
CN(C)c1ccc(C(O)C2C=CC3C(=O)N(c4ccccc4)C(=O)C3N2Nc2ccccc2F)cc1 (centres undefined); 1
O=C1[C@H]2[C@H]3[C@H](O)[C@H](O)CC(=NO[C@@H]4O[C@H](CO)[C@@H](O)[C@H](O)[C@H]4O)[C@H]3CC[C@H]2C(=O)N1Cc1ccccc1; 3
CC(CCN1CCc2nc(-c3ccccc3)c(-c3ccccc3)cc2C1)=NOC(C)CN1CCCCc2nc(C)c(C)cc21 (centres undefined); 1
CCN1C(=O)[C@H]2[C@H]3[C@H](O)[C@H](O)CC(=NOCC=C(C)CCC=C(C)C)[C@H]3CC[C@H]2C1=O; 1

## Task # bin label for C#CCCCON=C1C[C@@H](O)[C@@H](O)[C@@H]2[C@@H]3C(=O)N(c4cccc(Oc5ccccc5)c4)C(=O)[C@@H]3CC[C@@H]12
## Result 3

## Task The entry to classify is CCCC[C@H]1OB(O)C[C@H]2C1=C(C)C[C@H]1C(=O)N(C)C(=O)[C@H]12 ; which class holds it?
## Result 1

## Task # bin label for C#CCCCON=C1C[C@@H](O)[C@@H](O)[C@@H]2[C@@H]3C(=O)N(Cc4ccccc4)C(=O)[C@@H]3CC[C@H]12
## Result 3

## Task Kindly state the category for this molecule: COc1ccc([Si](C)(C)[C@@H]2[C@@H](CCO)O[C@]3(C(=O)N(Cc4ccc(NC(C)=O)cc4)c4ccccc43)[C@H]2C)cc1
## Result 1

## Task Hey, which category is Cc1ccc(S(=O)(=O)N[C@@H]2COC(=O)[C@H](C)COC(=O)CC=C[C@H]2C)cc1 in, do you know?
## Result 2
